Molecular target: T1, 4H3427-bA
T1 chain: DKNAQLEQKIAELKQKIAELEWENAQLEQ
Test: two-hybrid library CCNG1;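 also: natural log of median RNA to DNA barcode read ratio; higher means stronger binding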
readout label: interaction score
Numbers only.

Some binders with known interaction score results, for comparison:
{"binder": "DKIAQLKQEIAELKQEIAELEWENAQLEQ [4H2627-bA]", "interaction score": 1.03}
{"binder": "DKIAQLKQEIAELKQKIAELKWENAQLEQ [4H2667-bA]", "interaction score": 0.719}
{"binder": "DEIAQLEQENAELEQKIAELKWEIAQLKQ [4H170-bA]", "interaction score": 0.122}
{"binder": "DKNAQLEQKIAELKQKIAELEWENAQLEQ [4H3427-bA]", "interaction score": 0.0593}
{"binder": "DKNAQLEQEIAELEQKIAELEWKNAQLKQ [4H3112-bA]", "interaction score": 1.55}

I would be grateful if you could provide interaction score for each of the following entries.
1. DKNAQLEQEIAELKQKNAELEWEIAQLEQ [4H3185-bA]
2. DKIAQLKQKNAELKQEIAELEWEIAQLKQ [4H3010-bA]
3. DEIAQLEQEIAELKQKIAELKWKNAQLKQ [4H112-bA]
4. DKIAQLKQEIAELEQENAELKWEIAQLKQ [4H2586-bA]
5. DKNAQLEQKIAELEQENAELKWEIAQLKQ [4H3354-bA]

Data returned:
1: -0.483; 2: 0.296; 3: 1.34; 4: -0.911; 5: -0.0236
